Tested on: S. aureus
experiment: Antibacterial activity (bacterial growth inhibition)
Assay type: cell-based, Staphylococcus aureus
experimental context: Staphylococcus aureus, at 100 μg/mL, read-out: Antibacterial Activity (% Inhibition ± SEM)
measured attribute: inhibition at 100 µg/mL (%)
The response must be a number in % with no trailing unit.

smiles_text=Cc1ccc2oc(=O)c(/C=N/Nc3nc(-c4ccc([N+](=O)[O-])cc4)cs3)c(Cl)c2c1 target="S. aureus" recorded_value=21
smiles_text=C/C(=N\Nc1nc(-c2ccccc2O)cs1)c1cc2ccccc2oc1=O target="S. aureus" recorded_value=73
smiles_text=C/C(=N\Nc1nc(-c2ccc(C#N)cc2)cs1)c1cc2ccccc2oc1=O target="S. aureus" recorded_value=61

Prompt: Look up inhibition at 100 µg/mL for this compound: C/C(=N\Nc1nc(-c2ccc(Br)cc2)cs1)c1cc2ccccc2oc1=O
Response: 18

Prompt: Look up inhibition at 100 µg/mL for this compound: C/C(=N\Nc1nc(-c2ccc(Cl)cc2)cs1)c1cc2ccccc2oc1=O
Response: 88

Prompt: Look up inhibition at 100 µg/mL for this compound: COc1ccc(-c2csc(N/N=C/c3c(Cl)c4cc(C)ccc4oc3=O)n2)cc1
Response: 52
